For each of the compounds below, state its kinase still bound, per cent of control.
# Target desc: EPHA3 (human) (UniProt P29320)
# Sequence (P29320 whole entry, looked up): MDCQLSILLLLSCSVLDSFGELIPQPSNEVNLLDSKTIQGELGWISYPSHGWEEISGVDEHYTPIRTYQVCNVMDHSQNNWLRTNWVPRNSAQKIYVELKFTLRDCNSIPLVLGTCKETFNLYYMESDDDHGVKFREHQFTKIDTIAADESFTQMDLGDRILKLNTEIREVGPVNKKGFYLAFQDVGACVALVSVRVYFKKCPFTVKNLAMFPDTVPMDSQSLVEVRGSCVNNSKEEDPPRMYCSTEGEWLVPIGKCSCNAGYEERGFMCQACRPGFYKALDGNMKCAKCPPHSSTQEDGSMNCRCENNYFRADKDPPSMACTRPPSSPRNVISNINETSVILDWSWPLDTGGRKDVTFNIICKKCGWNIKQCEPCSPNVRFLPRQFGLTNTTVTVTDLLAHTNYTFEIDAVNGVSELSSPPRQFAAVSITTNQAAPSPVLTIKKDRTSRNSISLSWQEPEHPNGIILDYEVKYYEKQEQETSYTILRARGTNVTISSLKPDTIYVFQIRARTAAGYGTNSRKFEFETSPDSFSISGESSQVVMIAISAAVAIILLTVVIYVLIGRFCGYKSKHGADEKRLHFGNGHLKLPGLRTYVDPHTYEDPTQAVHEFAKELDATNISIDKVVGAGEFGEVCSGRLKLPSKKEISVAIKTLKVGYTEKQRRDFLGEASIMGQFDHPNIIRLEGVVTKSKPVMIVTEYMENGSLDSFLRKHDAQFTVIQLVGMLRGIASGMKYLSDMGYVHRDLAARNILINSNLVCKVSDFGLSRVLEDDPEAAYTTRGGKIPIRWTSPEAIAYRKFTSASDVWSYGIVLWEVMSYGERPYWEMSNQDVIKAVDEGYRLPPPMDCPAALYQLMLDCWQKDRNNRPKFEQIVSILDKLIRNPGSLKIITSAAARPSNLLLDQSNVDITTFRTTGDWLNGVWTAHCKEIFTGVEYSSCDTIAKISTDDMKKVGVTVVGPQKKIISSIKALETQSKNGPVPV
# Assay summary: KINOMEscan competition binding
# Conditions used: compound 10.0 µM
Answers are plain numbers, in %.

Quick one: give me kinase still bound, per cent of control for each item below, same order please.
1. CNC(=O)c1ccc(Nc2cc(Nc3ccccc3S(=O)(=O)C(C)C)c3cc[nH]c3n2)nc1
2. CCN(CC)CCCCNc1ncc2c(n1)N(C)C(=O)N(c1c(Cl)c(OC)cc(OC)c1Cl)C2
3. CS(=O)(=O)N1CCN(Cc2cc3nc(-c4cccc5[nH]ncc45)nc(N4CCOCC4)c3s2)CC1
4. O=c1cc(N2CCOCC2)oc2c(-c3cccc4c3sc3ccccc34)cccc12
5. CCN(CC)CCCCNc1ncc2cc(-c3cc(OC)cc(OC)c3)c(NC(=O)NC(C)(C)C)nc2n1
6. NC(=O)Nc1cc(-c2cccc(F)c2)sc1C(=O)N[C@@H]1CCCNC1

Result:
1. 100
2. 100
3. 100
4. 91
5. 100
6. 0.2

---

For each of the compounds below, state its kinase still bound, per cent of control.
# Target desc: UniProt Q15375
# Sequence (Q15375 whole entry, looked up): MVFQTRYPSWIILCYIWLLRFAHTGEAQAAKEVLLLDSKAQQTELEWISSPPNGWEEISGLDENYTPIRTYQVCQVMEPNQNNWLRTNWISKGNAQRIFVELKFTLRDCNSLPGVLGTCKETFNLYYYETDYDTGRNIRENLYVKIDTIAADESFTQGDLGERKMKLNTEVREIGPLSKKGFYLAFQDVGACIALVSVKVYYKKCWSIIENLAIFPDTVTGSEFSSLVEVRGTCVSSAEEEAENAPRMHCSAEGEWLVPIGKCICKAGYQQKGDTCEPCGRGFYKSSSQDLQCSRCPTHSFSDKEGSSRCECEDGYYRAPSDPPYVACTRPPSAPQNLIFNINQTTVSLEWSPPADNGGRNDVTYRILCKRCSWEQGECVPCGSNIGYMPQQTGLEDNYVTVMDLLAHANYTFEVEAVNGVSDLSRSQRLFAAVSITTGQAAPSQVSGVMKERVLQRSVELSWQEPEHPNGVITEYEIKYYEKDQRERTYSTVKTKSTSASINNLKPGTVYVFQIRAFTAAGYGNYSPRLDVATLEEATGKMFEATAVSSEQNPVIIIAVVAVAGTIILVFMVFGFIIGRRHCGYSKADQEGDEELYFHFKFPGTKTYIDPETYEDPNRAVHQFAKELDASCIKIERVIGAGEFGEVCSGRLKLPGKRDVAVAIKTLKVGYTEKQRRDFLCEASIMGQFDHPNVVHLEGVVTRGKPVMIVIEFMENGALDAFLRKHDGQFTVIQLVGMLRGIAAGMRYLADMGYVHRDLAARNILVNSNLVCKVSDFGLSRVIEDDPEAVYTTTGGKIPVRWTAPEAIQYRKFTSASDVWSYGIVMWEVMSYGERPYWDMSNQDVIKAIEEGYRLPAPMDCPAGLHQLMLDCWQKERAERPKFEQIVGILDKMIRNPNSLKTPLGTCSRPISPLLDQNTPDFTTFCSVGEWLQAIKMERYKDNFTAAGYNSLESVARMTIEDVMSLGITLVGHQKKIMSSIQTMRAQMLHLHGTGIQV
# Assay summary: KINOMEscan competition binding
# Conditions used: compound 10.0 µM
One number for each entry, in %.

Smiles str	Target desc	Observed property	Experimental value
O=C1NC(=O)/C(=C/c2ccc3nccc(-c4ccncc4)c3c2)S1	UniProt Q15375	kinase still bound, per cent of control	88
COCC(=O)NC/C=C/c1ccc2ncnc(Nc3ccc(Oc4ccc(C)nc4)c(C)c3)c2c1	UniProt Q15375	kinase still bound, per cent of control	100

Quick one: give me kinase still bound, per cent of control for each item below, same order please.
1. CS(=O)(=O)N1CCN(Cc2cc3nc(-c4cccc5[nH]ncc45)nc(N4CCOCC4)c3s2)CC1
2. C=CC(=O)Nc1cc(-n2c(=O)ccc3cnc4ccc(-c5cn[nH]c5)cc4c32)ccc1C

Result:
[100, 99]

---

For each of the molecules below, state its kinase still bound, per cent of control.
# Target desc: PRKCQ (human) (UniProt Q04759)
# Sequence (Q04759 whole entry, looked up): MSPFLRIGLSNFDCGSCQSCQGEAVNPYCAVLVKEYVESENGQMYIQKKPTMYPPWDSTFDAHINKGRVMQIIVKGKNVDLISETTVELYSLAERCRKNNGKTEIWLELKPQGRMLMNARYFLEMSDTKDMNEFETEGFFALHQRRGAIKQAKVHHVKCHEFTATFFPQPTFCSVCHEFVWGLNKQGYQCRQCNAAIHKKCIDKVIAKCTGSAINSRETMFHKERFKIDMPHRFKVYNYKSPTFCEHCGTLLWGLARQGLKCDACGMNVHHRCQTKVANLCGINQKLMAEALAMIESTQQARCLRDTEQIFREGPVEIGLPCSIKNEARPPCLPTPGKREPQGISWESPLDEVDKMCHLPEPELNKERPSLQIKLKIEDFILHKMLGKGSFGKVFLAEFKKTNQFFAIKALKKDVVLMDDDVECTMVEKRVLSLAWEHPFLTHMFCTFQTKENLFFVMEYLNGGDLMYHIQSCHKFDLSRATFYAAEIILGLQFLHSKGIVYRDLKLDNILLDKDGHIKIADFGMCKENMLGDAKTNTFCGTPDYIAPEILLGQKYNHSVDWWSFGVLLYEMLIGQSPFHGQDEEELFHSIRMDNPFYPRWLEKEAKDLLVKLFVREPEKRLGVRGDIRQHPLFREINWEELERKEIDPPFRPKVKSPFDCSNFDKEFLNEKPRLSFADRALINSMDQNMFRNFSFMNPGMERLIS
# Assay summary: KINOMEscan competition binding
# Conditions used: compound 10.0 µM
Give bare numbers, in %.

Recorded results for 8 molecules are shown here.
Smiles str	Experimental value
COc1cc2ncnc(-n3nc(-c4ccccn4)nc3N)c2cc1OC	100
COCC(=O)NC/C=C/c1ccc2ncnc(Nc3ccc(Oc4ccc(C)nc4)c(C)c3)c2c1	100
CCN(CC)CCCCNc1ncc2c(n1)N(C)C(=O)N(c1c(Cl)c(OC)cc(OC)c1Cl)C2	100
C=CC(=O)Nc1cc(-n2c(=O)ccc3cnc4ccc(-c5cn[nH]c5)cc4c32)ccc1C	100
CS(=O)(=O)N1CCN(Cc2cc3nc(-c4cccc5[nH]ncc45)nc(N4CCOCC4)c3s2)CC1	100
C=CC(=O)Nc1ccc(CN(C(=O)Nc2c(Cl)c(OC)cc(OC)c2Cl)c2cc(Nc3ccc(N4CCN(C)CC4)cc3)ncn2)cc1	100
NC(=O)Nc1cc(-c2cccc(F)c2)sc1C(=O)N[C@@H]1CCCNC1	0
CNC(=O)c1ccc(Nc2cc(Nc3ccccc3S(=O)(=O)C(C)C)c3cc[nH]c3n2)nc1	24

Ask: Which kinase still bound, per cent of control is reported with PRKCQ (human) (UniProt Q04759) for this entry: O=C1NC(=O)/C(=C/c2ccc3nccc(-c4ccncc4)c3c2)S1 ?
Result: 60

---

For each of the compounds below, state its kinase still bound, per cent of control.
# Target desc: FER (human) (UniProt P16591)
# Sequence (P16591 whole entry, looked up): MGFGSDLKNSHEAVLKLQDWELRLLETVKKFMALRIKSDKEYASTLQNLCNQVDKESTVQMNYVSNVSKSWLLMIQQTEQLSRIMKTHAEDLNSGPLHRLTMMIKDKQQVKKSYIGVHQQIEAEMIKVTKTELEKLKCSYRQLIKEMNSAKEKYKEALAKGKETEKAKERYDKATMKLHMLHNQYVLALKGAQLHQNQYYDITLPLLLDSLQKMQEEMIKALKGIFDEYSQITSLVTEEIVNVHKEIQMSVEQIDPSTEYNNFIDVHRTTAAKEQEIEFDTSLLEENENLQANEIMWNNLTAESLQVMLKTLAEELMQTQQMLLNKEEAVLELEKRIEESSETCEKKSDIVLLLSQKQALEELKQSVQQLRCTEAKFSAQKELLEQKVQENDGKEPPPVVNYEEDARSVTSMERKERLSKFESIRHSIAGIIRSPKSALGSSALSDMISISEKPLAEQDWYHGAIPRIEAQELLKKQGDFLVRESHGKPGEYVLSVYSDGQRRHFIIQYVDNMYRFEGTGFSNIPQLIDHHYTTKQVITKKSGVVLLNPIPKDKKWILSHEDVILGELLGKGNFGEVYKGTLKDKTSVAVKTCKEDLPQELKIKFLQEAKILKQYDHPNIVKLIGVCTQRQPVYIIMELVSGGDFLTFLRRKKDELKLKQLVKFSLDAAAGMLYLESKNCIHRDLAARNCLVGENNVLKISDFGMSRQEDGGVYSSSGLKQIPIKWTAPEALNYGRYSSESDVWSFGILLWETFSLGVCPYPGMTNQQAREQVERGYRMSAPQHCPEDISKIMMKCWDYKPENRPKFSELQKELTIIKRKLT
# Assay summary: KINOMEscan competition binding
# Conditions used: compound 10.0 µM
Your answer should be a number followed by the unit of measure.

Smiles str	Observed property	Experimental value
Cc1n[nH]c2ccc(-c3cncc(OC[C@@H](N)Cc4c[nH]c5ccccc45)c3)cc12	kinase still bound, per cent of control	100%
CCN1CCN(C(=O)Cc2ccc(Nc3ncc(F)c(Nc4ccc(C(=O)Nc5ccccc5Cl)cc4)n3)cc2)CC1	kinase still bound, per cent of control	100%
CN(C)C/C=C/C(=O)Nc1ccc(C(=O)Nc2cccc(Nc3nccc(-c4cccnc4)n3)c2)cc1	kinase still bound, per cent of control	100%

Quick one: give me kinase still bound, per cent of control for each item below, same order please.
1. O=c1cc(N2CCOCC2)oc2c(-c3cccc4c3sc3ccccc34)cccc12
2. C=CC(=O)Nc1ccc(CN(C(=O)Nc2c(Cl)c(OC)cc(OC)c2Cl)c2cc(Nc3ccc(N4CCN(C)CC4)cc3)ncn2)cc1

Result:
1: 100%; 2: 100%

Quick one: give me kinase still bound, per cent of control for each item below, same order please.
1. COc1cc(C(=O)N2CCC(N3CCN(C)CC3)CC2)ccc1Nc1ncc2c(n1)N(C)c1ccccc1C(=O)N2C
2. CNC(=O)c1ccc(Nc2cc(Nc3ccccc3S(=O)(=O)C(C)C)c3cc[nH]c3n2)nc1
3. COCC(=O)NC/C=C/c1ccc2ncnc(Nc3ccc(Oc4ccc(C)nc4)c(C)c3)c2c1
4. O=C(Nc1cccc(Nc2ncc(Br)c(NCCc3cnc[nH]3)n2)c1)N1CCCC1
5. CCN(CC)CCCCNc1ncc2cc(-c3cc(OC)cc(OC)c3)c(NC(=O)NC(C)(C)C)nc2n1
6. N#CCNC(=O)c1ccc(-c2ccnc(Nc3ccc(N4CCOCC4)cc3)n2)cc1
7. CNC(=O)c1cc(Oc2ccc(NC(=O)Nc3ccc(Cl)c(C(F)(F)F)c3)cc2)ccn1

Result:
1: 51%; 2: 1.1%; 3: 100%; 4: 47%; 5: 100%; 6: 100%; 7: 87%

Quick one: give me kinase still bound, per cent of control for each item below, same order please.
1. C[C@@H](Oc1cc(-c2cnn(C3CCNCC3)c2)cnc1N)c1c(Cl)ccc(F)c1Cl
2. C=CC(=O)Nc1cc(-n2c(=O)ccc3cnc4ccc(-c5cn[nH]c5)cc4c32)ccc1C
3. CCN(CC)CCCCNc1ncc2c(n1)N(C)C(=O)N(c1c(Cl)c(OC)cc(OC)c1Cl)C2
4. COc1cc(N2CCN(C)CC2)ccc1Nc1ncc2c(n1)N(C)c1ccccc1C(=O)N2C
5. CS(=O)(=O)N1CCN(Cc2cc3nc(-c4cccc5[nH]ncc45)nc(N4CCOCC4)c3s2)CC1
6. COc1cc2ncnc(-n3nc(-c4ccccn4)nc3N)c2cc1OC

Result:
2%
100%
100%
32%
100%
93%

---

# Target desc: STK36 (human) (UniProt Q9NRP7)
# Sequence (Q9NRP7 whole entry, looked up): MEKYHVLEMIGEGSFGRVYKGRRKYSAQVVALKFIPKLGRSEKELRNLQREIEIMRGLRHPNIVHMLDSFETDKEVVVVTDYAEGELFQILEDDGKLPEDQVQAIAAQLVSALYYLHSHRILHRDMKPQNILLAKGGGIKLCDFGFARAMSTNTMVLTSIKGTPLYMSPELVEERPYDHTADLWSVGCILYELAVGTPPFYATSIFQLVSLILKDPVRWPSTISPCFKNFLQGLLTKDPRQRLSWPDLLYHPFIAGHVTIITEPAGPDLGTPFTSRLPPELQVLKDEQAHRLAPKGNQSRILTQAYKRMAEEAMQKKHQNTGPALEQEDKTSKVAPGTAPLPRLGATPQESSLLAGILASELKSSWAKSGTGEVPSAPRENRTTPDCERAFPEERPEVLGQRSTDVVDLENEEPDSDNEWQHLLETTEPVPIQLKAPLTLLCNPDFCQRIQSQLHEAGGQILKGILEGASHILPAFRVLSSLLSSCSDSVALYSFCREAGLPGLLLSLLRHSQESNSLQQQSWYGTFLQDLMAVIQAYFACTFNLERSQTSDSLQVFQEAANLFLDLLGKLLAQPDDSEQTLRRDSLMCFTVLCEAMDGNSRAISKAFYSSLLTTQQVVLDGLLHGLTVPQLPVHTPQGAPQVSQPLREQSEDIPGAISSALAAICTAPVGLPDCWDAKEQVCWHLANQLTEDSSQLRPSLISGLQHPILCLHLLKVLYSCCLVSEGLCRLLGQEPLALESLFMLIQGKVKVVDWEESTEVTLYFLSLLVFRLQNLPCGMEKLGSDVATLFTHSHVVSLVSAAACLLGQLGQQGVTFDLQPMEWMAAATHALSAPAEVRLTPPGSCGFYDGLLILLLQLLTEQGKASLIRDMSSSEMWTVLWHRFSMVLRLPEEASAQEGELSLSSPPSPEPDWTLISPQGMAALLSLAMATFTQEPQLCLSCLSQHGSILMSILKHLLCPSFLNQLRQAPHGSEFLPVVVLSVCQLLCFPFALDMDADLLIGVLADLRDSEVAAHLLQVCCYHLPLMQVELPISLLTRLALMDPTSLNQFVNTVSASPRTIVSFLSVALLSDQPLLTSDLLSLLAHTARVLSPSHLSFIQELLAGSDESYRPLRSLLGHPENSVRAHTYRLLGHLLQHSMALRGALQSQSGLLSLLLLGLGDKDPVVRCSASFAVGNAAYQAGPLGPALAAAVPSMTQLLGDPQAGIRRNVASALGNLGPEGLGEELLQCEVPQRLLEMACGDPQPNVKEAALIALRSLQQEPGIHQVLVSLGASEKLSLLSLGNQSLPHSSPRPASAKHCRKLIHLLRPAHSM
# Assay summary: KINOMEscan competition binding
# Conditions used: compound 10.0 µM
Observed property: kinase still bound, per cent of control (%)
One number for each entry, in %.

Quick one: give me kinase still bound, per cent of control for each item below, same order please.
1. O=c1cc(N2CCOCC2)oc2c(-c3cccc4c3sc3ccccc34)cccc12
2. CCN(CC)CCCCNc1ncc2c(n1)N(C)C(=O)N(c1c(Cl)c(OC)cc(OC)c1Cl)C2
3. COc1cc2ncn(-c3cc(OCc4ccccc4C(F)(F)F)c(C(N)=O)s3)c2cc1OC

Result:
[100, 100, 76]

Quick one: give me kinase still bound, per cent of control for each item below, same order please.
1. Cc1n[nH]c2ccc(-c3cncc(OC[C@@H](N)Cc4c[nH]c5ccccc45)c3)cc12
2. COc1cc2ncnc(-n3nc(-c4ccccn4)nc3N)c2cc1OC
3. COCC(=O)NC/C=C/c1ccc2ncnc(Nc3ccc(Oc4ccc(C)nc4)c(C)c3)c2c1
4. COc1cc(C(=O)N2CCC(N3CCN(C)CC3)CC2)ccc1Nc1ncc2c(n1)N(C)c1ccccc1C(=O)N2C
5. COc1ccc(N(C(=O)Oc2c(C)cccc2C)c2ccnc(Nc3ccc(N4CCN(C)CC4)cc3)n2)c(OC)c1

Result:
100
7.4
100
97
0.95

Ask: Entry under review: CCN1CCN(C(=O)Cc2ccc(Nc3ncc(F)c(Nc4ccc(C(=O)Nc5ccccc5Cl)cc4)n3)cc2)CC1 . Reported kinase still bound, per cent of control?
Result: 2.1

---

# Target desc: GRK7 (human) (UniProt Q8WTQ7)
# Assay summary: KINOMEscan competition binding
# Conditions used: compound 10.0 µM
For each of the molecules below, state its kinase still bound, per cent of control.
Numbers only, in %.

Smiles str	Observed property	Experimental value
CCN1CCN(C(=O)Cc2ccc(Nc3ncc(F)c(Nc4ccc(C(=O)Nc5ccccc5Cl)cc4)n3)cc2)CC1	kinase still bound, per cent of control	71
CS(=O)(=O)N1CCN(Cc2cc3nc(-c4cccc5[nH]ncc45)nc(N4CCOCC4)c3s2)CC1	kinase still bound, per cent of control	100
COc1cc(C(=O)N2CCC(N3CCN(C)CC3)CC2)ccc1Nc1ncc2c(n1)N(C)c1ccccc1C(=O)N2C	kinase still bound, per cent of control	100
COCC(=O)NC/C=C/c1ccc2ncnc(Nc3ccc(Oc4ccc(C)nc4)c(C)c3)c2c1	kinase still bound, per cent of control	100
COc1cc2ncnc(-n3nc(-c4ccccn4)nc3N)c2cc1OC	kinase still bound, per cent of control	11

Quick one: give me kinase still bound, per cent of control for each item below, same order please.
1. CNC(=O)c1cc(Oc2ccc(NC(=O)Nc3ccc(Cl)c(C(F)(F)F)c3)cc2)ccn1
2. NC(=O)Nc1cc(-c2cccc(F)c2)sc1C(=O)N[C@@H]1CCCNC1
3. C=CC(=O)Nc1cc(-n2c(=O)ccc3cnc4ccc(-c5cn[nH]c5)cc4c32)ccc1C
4. N#CCNC(=O)c1ccc(-c2ccnc(Nc3ccc(N4CCOCC4)cc3)n2)cc1
5. O=C(Nc1cccc(Nc2ncc(Br)c(NCCc3cnc[nH]3)n2)c1)N1CCCC1
6. COc1cc(N2CCN(C)CC2)ccc1Nc1ncc2c(n1)N(C)c1ccccc1C(=O)N2C
7. COc1cc2ncn(-c3cc(OCc4ccccc4C(F)(F)F)c(C(N)=O)s3)c2cc1OC

Result:
100
0.15
52
100
34
100
52

Quick one: give me kinase still bound, per cent of control for each item below, same order please.
1. O=C1NC(=O)/C(=C/c2ccc3nccc(-c4ccncc4)c3c2)S1
2. COc1ccc(N(C(=O)Oc2c(C)cccc2C)c2ccnc(Nc3ccc(N4CCN(C)CC4)cc3)n2)c(OC)c1
3. CN(C)C/C=C/C(=O)Nc1ccc(C(=O)Nc2cccc(Nc3nccc(-c4cccnc4)n3)c2)cc1
4. O=c1cc(N2CCOCC2)oc2c(-c3cccc4c3sc3ccccc34)cccc12
5. C[C@@H](Oc1cc(-c2cnn(C3CCNCC3)c2)cnc1N)c1c(Cl)ccc(F)c1Cl
6. CCN(CC)CCCCNc1ncc2c(n1)N(C)C(=O)N(c1c(Cl)c(OC)cc(OC)c1Cl)C2

Result:
[5.4, 72, 98, 92, 42, 100]
